Provenance of the data: patent US5696276A

# Tested on: S-180 sarcoma cells
# procedure details: Animal experiment using Sarcoma S-180 cells (survival of mouse)
# Assay type: in vivo, male ICR mouse
# measurement conditions: ip; S-180 ICR mouse, intraperitoneal, daily dose 5 μmole (mg/kg/day given per compound), 7 to 8 injections; read-out: T/C
readout: response vs control in vivo at 5 µmol/kg (%)
Give just the numeric value; % need not be written.

// fetch response vs control in vivo at 5 µmol/kg given entry CC(=O)OC(CCC(C)C)C1=CC(=O)c2c(O)ccc(O)c2C1=O (stereo not shown) 188

// fetch response vs control in vivo at 5 µmol/kg given entry CC(C)CCC(O)C1=CC(=O)c2c(O)ccc(O)c2C1=O (stereo not shown) [reference compound] 120

// fetch response vs control in vivo at 5 µmol/kg given entry CC(=O)OC(CC=C(C)C)C1=CC(=O)c2c(O)ccc(O)c2C1=O (stereo not shown) 160

// fetch response vs control in vivo at 5 µmol/kg given entry CCCCCC(OC(C)=O)C1=CC(=O)c2c(O)ccc(O)c2C1=O (stereo not shown) 150

* * *

# System: A549 cancer cells
# procedure details: Cytotoxic activity against A549 cancer cells (sulforhodamin B method)
# Type: cell-based
# measurement conditions: Homo sapiens; A549 cells, SRB method, 48 hours; read-out: ED50, cytotoxic activity against A549
readout: IC50 (µg/mL)
Give just the numeric value; µg/mL need not be written.

Worked cases, answers included:
// fetch IC50 given entry COc1ccc(OC)c2c1C(=O)C=C(C(CCC(C)C)OC)C2=O (stereo not shown) 5.6

// fetch IC50 given entry CCCCCC(=O)OC(CCCCC)C1=CC(=O)c2c(O)ccc(O)c2C1=O (stereo not shown) 0.3

// fetch IC50 given entry CC(C)CCOC(CCC(C)C)C1=CC(=O)c2c(O)ccc(O)c2C1=O (stereo not shown) 1.1

// fetch IC50 given entry CC/C=C/CC(=O)OC(CCC(C)C)C1=CC(=O)c2c(O)ccc(O)c2C1=O (stereo not shown) 2.4

// fetch IC50 given entry CCCCC(O)C1=CC(=O)c2c(OC)ccc(OC)c2C1=O (stereo not shown) 6.4

Further cases:
// fetch IC50 given entry CC=CC=CC(=O)OC(CC=C(C)C)C1=CC(=O)c2c(O)ccc(O)c2C1=O (stereo not shown) 0.7

// fetch IC50 given entry CCCCC(O)C1=CC(=O)c2c(O)ccc(O)c2C1=O (stereo not shown) 0.5

// fetch IC50 given entry CCOC(CCC(C)C)C1=CC(=O)c2c(OC)ccc(OC)c2C1=O (stereo not shown) 3

* * *

# Tested on: S-180 sarcoma cells
# procedure details: Animal experiment using Sarcoma S-180 cells (survival of mouse)
# Type: in vivo, male ICR mouse
# measurement conditions: ip, 1200 h; S-180 ICR mouse, intraperitoneal, daily dose 15 μmole (mg/kg/day given per compound), 7 to 8 injections; read-out: Number of mouse survived for 50 days (converted)
readout: responders at 15 µmol/kg
I'd appreciate it if you included the unit after the number.

// fetch responders at 15 µmol/kg given entry C=CCCCCCCCCC(=O)OC(CC=C(C)C)C1=CC(=O)c2c(O)ccc(O)c2C1=O (stereo not shown) 0%

// fetch responders at 15 µmol/kg given entry CCCCCCCC(=O)OC(CCC(C)C)C1=CC(=O)c2c(O)ccc(O)c2C1=O (stereo not shown) 0%

// fetch responders at 15 µmol/kg given entry CCCCCC=CCC=CCCCCCCCC(=O)OC(CC=C(C)C)C1=CC(=O)c2c(O)ccc(O)c2C1=O (stereo not shown) 0%

// fetch responders at 15 µmol/kg given entry CC/C=C/C(=O)OC(CC=C(C)C)C1=CC(=O)c2c(O)ccc(O)c2C1=O (stereo not shown) 14.3%

// fetch responders at 15 µmol/kg given entry CCCCCCCCCCCCCCCC(=O)OC(CC=C(C)C)C1=CC(=O)c2c(O)ccc(O)c2C1=O (stereo not shown) 0%

// fetch responders at 15 µmol/kg given entry CCCCCCCCCCCCCCCCCC(=O)OC(CC=C(C)C)C1=CC(=O)c2c(O)ccc(O)c2C1=O (stereo not shown) 0%

// fetch responders at 15 µmol/kg given entry CCCCCCCCCC(=O)OC(CC=C(C)C)C1=CC(=O)c2c(O)ccc(O)c2C1=O (stereo not shown) 0%

// fetch responders at 15 µmol/kg given entry CCCCCCCC/C=C\CCCCCCCC(=O)OC(CC=C(C)C)C1=CC(=O)c2c(O)ccc(O)c2C1=O (stereo not shown) 0%

Further cases:
// fetch responders at 15 µmol/kg given entry CC(C)=CCC(OC(=O)/C=C(C)/C=C/C=C(C)/C=C/C1=C(C)CCCC1(C)C)C1=CC(=O)c2c(O)ccc(O)c2C1=O (stereo not shown) 0%

// fetch responders at 15 µmol/kg given entry CCC=CCC=CCC=CCCCCCCCC(=O)OC(CC=C(C)C)C1=CC(=O)c2c(O)ccc(O)c2C1=O (stereo not shown) 0%

// fetch responders at 15 µmol/kg given entry CCCCCCCC(=O)OC(CC=C(C)C)C1=CC(=O)c2c(O)ccc(O)c2C1=O (stereo not shown) 22.2%

// fetch responders at 15 µmol/kg given entry CC(C)=CCC(OC(=O)C(c1ccccc1)c1ccccc1)C1=CC(=O)c2c(O)ccc(O)c2C1=O (stereo not shown) 25%

// fetch responders at 15 µmol/kg given entry CCCCCCCCCCCC(=O)OC(CC=C(C)C)C1=CC(=O)c2c(O)ccc(O)c2C1=O (stereo not shown) 0%
